- assay-target: T1, TGFβ2 (R&D Systems)
- T1 sequence (P61812 303-414, species assumed, looked up): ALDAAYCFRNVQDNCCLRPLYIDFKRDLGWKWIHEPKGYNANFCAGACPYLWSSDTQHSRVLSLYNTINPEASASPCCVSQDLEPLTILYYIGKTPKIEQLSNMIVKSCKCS
- assay-text: SPR (Biacore T200), TGFβ amine-coupled to chip, 1:1 fit
reported-metric: Kd (nM)
Write the value in nM as a bare number.

binder="Felinized anti-TGFβ1,2,3 antibody VH6.1 - VL3 (antibody, V domains shown) VH: QVLLVQSGAEVRTPGASVKIFCKASGYGFTSNVISWVRQSPAQGLEWMGGVIPIVDIANYAQRFKGRLTLTADTSTDTAYMELSSLRSADTAMYYCASTLGLVLDAMDYWGQGTLVTVSS VL: EIQMTQSPSSLSASPGDRVTITCRASQSLGSSYLAWYQQKPGKVPKLLIYGASSRAPGVPSRFSGSGSGTDFTLTISSLEPEDAATYYCQQYADSPITFGQGTKLEIKR" readout_value=2.99
binder="Caninized anti-TGFβ1,2,3 antibody VH3.6 - VL2 (antibody, V domains shown) VH: EVQLVQSAAEVKKPGASVKVSCKTSGYIFISNVISWVRQAPGQGLEWMGGVIPIVDIANYAQRFKGRVTITADESTSTTYMELSSLRSEDTAVYYCASTLGLVLDAMDYWGQGTLVTVSS VL: ETVLTQSPGTLSLSPGERATLSCRASQSLGSSYLAWYQQKPGQAPRLLIYGASSRAPGVPARFSGSGSGTDFTLTISSLEPEDFAVYYCQQYADSPITFGQGTKLEIKR" readout_value=3.42

Turning now to a further record.
Please fill in: Kd reported for Felinized anti-TGFβ1,2,3 antibody VH3.2 - VL1 (antibody, V domains shown) VH: DVQLVESGGDLVKPGGSLRLTCVASGYTFSSNVMHWVRQAPGKGLQWVAYVIPIVDIAYYADSVKGRFTISIDNSKNTLYLQMNSLKTEDTATYYCARTLGLVLDAMDYWGQGTLVTVSS VL: ETVLTQSPGTLSLSPGERATLSCRASQSLGSSYLAWYQQKPGQAPRLLIYGASSRAPGIPDRFSGSGSGTDFTLTISRLEPEDFAVYYCQQYADSPITFGQGTKLEIKR = 1.84
